System: HL-60(TB) leukemia
Assay: NCI tumour cell line growth inhibition, 48 h
experimental endpoint: log10(TGI) (log10 of the value in µM)
Short version: log10 scale, TGI, µM.

Examples from the recorded data:
compound: COc1ccc(/C=N/Nc2nc(N)nc(N3CCCC3)c2C#N)cc1
tested on: HL-60(TB) leukemia
measured number: 1.94
--
compound: Brc1sc(Br)c2c1[C@H](Br)C[C@@H]2Br
tested on: HL-60(TB) leukemia
measured number: 1.88
--
compound: COc1cc([C@@H]2c3cc4c(cc3[C@@H](NC(=O)c3cccc(N)c3)C3COC(=O)[C@@H]32)OCO4)cc(OC)c1O (stereo not given in full)
tested on: HL-60(TB) leukemia
measured number: 0.32
--
compound: CCC(/C=C(C)/C=C/C(=O)c1c(O)c(-c2ccc(O)cc2)c[nH]c1=O)CO (stereo not given)
tested on: HL-60(TB) leukemia
measured number: 1.24

Query: Record request: log10(TGI) value, item C[C@]12CCc3nonc3C1CC[C@@H]1C2CC[C@]2(C)C(=O)/C(=N\O)CC12 (stereo not given in full)
Response: 0.57
